# SYSTEM TESTED: TNF-α converting enzyme (TACE) (Homo sapiens, UniProt P78536)
# Sequence (P78536 215-824, species assumed): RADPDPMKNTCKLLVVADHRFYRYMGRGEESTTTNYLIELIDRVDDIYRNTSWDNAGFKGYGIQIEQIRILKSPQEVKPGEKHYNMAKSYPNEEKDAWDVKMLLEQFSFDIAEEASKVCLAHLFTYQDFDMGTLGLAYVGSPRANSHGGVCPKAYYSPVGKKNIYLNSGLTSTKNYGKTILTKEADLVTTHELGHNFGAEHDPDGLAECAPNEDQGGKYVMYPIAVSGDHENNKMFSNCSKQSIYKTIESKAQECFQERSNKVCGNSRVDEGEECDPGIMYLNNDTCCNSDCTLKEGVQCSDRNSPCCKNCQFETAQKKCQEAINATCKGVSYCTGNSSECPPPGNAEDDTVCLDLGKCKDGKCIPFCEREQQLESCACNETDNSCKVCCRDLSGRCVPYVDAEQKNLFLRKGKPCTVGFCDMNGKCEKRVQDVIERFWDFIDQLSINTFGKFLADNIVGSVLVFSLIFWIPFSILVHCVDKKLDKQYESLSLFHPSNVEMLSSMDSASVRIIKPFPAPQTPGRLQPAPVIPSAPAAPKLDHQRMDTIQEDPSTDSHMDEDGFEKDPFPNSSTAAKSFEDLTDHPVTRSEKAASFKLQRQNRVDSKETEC
# ASSAY COMMENT: TACE inhibition (fluorescent peptidyl substrate)
# Format: biochemical
# CONDITION LABEL: read-out: TACE IC50
READOUT: pIC50
Give bare numbers, as −log10 of the molar value.

[Q] Which measured pIC50 value corresponds to CC#CCOc1ccc(S(=O)(=O)N(CC#CCN(CC)CC)C(C(=O)NO)C(C)C)cc1 (centres unmarked) ?
[A] 7.14

[Q] // lookup pIC50 for CC#CCOc1ccc(S(=O)(=O)NC(C(=O)NO)c2ccc(OCCOCCOCCOC)cc2)cc1 (centres unmarked)
[A] 7.41

[Q] Which value of pIC50 has been reported for CC#CCOc1ccc(S(=O)(=O)N(CC#CCNC)C(C(=O)NO)C(C)C)cc1 (centres unmarked) in the records?
[A] 6.98

[Q] Reported pIC50 for CC#CCOc1ccc(S(=O)(=O)N(C)C(CCCSc2ccc(Cl)cc2)C(=O)NO)cc1 (centres unmarked) : what is it?
[A] 6.68

[Q] Any idea what pIC50 was measured for CC#CCOc1ccc(S(=O)(=O)NC(CSC)C(=O)NO)cc1 (centres unmarked) ?
[A] 8.46

Provide the reported pIC50 of each entry below, same order.
1. CC#CCOc1ccc(S(=O)(=O)NC(C(=O)NO)C(C)(C)SCc2nccn2C)cc1 (centres unmarked)
2. CC#CCOc1ccc(S(=O)(=O)N(Cc2cccnc2)C2(C(=O)NO)CCCCC2)cc1
3. CC#CCOc1ccc(S(=O)(=O)N2CSC(C)(C)[C@@H]2C(=O)NO)cc1
4. CC#CCOc1ccc(S(=O)(=O)NC(C)(C)C(=O)NO)cc1
5. CC#CCOc1ccc(S(=O)(=O)N(C)C(C(=O)NO)c2ccc(OCCN)cc2)cc1 (centres unmarked)
6. CC#CCOc1ccc(S(=O)(=O)N[C@@H](C(=O)NO)c2ccc(OCCN)cc2)cc1

[A]
1. 7.74
2. 6.72
3. 7.70
4. 7.89
5. 7.80
6. 7.82

----------
# SYSTEM TESTED: TNF-α converting enzyme (TACE) (Homo sapiens, UniProt P78536)
# ASSAY COMMENT: TACE inhibition (fluorescent peptidyl substrate)
# Type: biochemical
# CONDITION LABEL: read-out: TACE IC50
Task for the reader: assign each of the following molecules its reported IC50.
One number for each entry, in nM.

# example entries with known answers
[Q] Can you share its IC50? I mean this molecule: CC#CCOc1ccc(S(=O)(=O)N2CCN(C(=O)CN)CC2C(=O)NO)cc1 (stereo not shown)
[A] 127

[Q] Please report the recorded IC50 for CC#CCOc1ccc(S(=O)(=O)N(C)C(C(=O)NO)C(C)(C)SCCN(CC)CC)cc1 (stereo not shown) .
[A] 131

[Q] // query IC50 value for entry CC#CCOc1ccc(S(=O)(=O)N(C)C(C(=O)NO)c2ccc(OCCCNS(C)(=O)=O)cc2)cc1 (stereo not shown)
[A] 25

Others:
[Q] Any idea what its IC50 is? The molecule is CC#CCOc1ccc(S(=O)(=O)NCC(=O)NO)cc1
[A] 4.8

----------
Consider the following molecules; for each one, report its melting point.
Counter-ions that a name gives are not always drawn.

// solved cases for melting point follow
[Q] Look at this molecule and give its reported melting point. CC#CCOc1ccc(S(=O)(=O)N(C)C(C(=O)NO)c2ccc(OCCCNC(=O)OCCCC)cc2)cc1 (stereo not shown)
[A] 50 to 55 °C

[Q] Would you kindly share the measured melting point for CC#CCOc1ccc(S(=O)(=O)N(C)C(C(=O)NO)C(C)(C)SCCN2CCOCC2)cc1 (stereo not shown) (as salt: hydrochloride) ?
[A] 50 °C (dec.)

[Q] Requested read-out: melting point. Entry: CC#CCOc1ccc(S(=O)(=O)N2CCSC3(CCN(Cc4ccccc4)CC3)C2C(=O)NO)cc1 (stereo not shown) (as salt: hydrochloride)
[A] 151 to 153 °C

Take each entry in turn and give its melting point.
1. CC#CCOc1ccc(S(=O)(=O)N(C)C(C(=O)NO)c2ccc(OCCCNS(C)(=O)=O)cc2)cc1 (stereo not shown)
2. CC#CCOc1ccc(S(=O)(=O)NC(C(=O)NO)C(C)(C)SCCC)cc1 (stereo not shown)

[A]
1: 65 to 70 °C; 2: 152 to 155 °C
